biological target: Ac-AChBP (Aplysia californica, UniProt Q8WSF8); test: biochemical; type: binding
Sequence (Q8WSF8 20-236): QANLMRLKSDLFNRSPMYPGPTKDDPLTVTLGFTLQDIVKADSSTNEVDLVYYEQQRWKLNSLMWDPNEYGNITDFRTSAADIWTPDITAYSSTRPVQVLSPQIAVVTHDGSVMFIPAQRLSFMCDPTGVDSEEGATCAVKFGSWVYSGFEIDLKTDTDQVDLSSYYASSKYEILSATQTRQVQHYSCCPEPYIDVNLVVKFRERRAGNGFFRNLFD
pKi: −log10 of the molar value.
recordedMetric: pKi

mol=Cc1cc(C)nc(C(=N)Nc2nc(-c3ccccn3)cc3ccccc23)n1 targetundertest="Ac-AChBP (Aplysia californica, UniProt Q8WSF8)" endpointvalue=4.96

----------
biological target: Ac-AChBP (Aplysia californica); test: affinity by tryptophan fluorescence quenching; assay type: binding
recordedMetric: Ki (nM)

mol=CN(C)c1ccc2cc3ccc(N(C)C)cc3nc2c1 recordedmetric=Ki endpointvalue=1580
